- protocol notes: In vivo pharmacokinetics after a single topical treatment of etilevodopa 10% in Long Evans rat eyes
- condition info: whole eye, single topical etilevodopa 10%, noncompartmental analysis
test readout: AUC0→∞

// query Given CCOC(=O)[C@@H](N)Cc1ccc(O)c(O)c1 [etilevodopa] , state its recorded AUC0→∞.
// result 4300 ng·h/mL

###

- protocol notes: In vivo pharmacokinetics after a single topical treatment of etilevodopa 10% in Long Evans rat eyes
- condition info: retina/vitreous, single topical etilevodopa 10%, noncompartmental analysis
test readout: AUC0→∞ (ng·h/mL)
Write the answer as a number in ng·h/mL, unit excluded.

// query Given CCOC(=O)[C@@H](N)Cc1ccc(O)c(O)c1 , state its recorded AUC0→∞.
// result 818
